# pIC50 values compiled below
Molecular target: Glutamate receptor ionotropic, kainate
Assay: Binding affinity for the ionotropic glutamate receptor kainate in rat brain synaptic membranes using [3H]kainate as radioligand
Type: cell membranes
Please note pIC50 is a logarithmic value: minus log10 of concentration in mol/L. Answer with that number alone.

Oc1nc2ccc3c(c2nc1O)CCNC3; 4.77

QUERY: Query: pIC50; subject: CCC(C)N1CCc2c([N+](=O)[O-])cc3[nH]c(=O)c(=O)[nH]c3c2C1 (configuration not stated)
RESULT: 6.07

QUERY: Same again, this time with `CCCCCCCN1CCc2c(c([N+](=O)[O-])cc3[nH]c(=O)c(=O)[nH]c23)C1`
RESULT: 4.10

QUERY: Same again, this time with `CN1CCc2c(N)cc3[nH]c(=O)c(=O)[nH]c3c2C1`
RESULT: 4.55

QUERY: Same again, this time with `CC(C)CCN1CCc2c(Br)cc3nc(O)c(O)nc3c2C1`
RESULT: 6.17

QUERY: Same again, this time with `Cc1cc2[nH]c(=O)c(=O)[nH]c2c2c1CN(C)CC2`
RESULT: 5.17

QUERY: Same again, this time with CCC(C)N1CCc2c(Br)cc3nc(O)c(O)nc3c2C1 (configuration not stated)
RESULT: 6.37
